- MEASURED_TARGET: human α-thrombin (Homo sapiens, UniProt P00734)
- Construct: Pure human α-thrombin; gift of Dr. T. Lindhout (University of Limburg, Maastricht)
- TEST_DESCRIPTION: Kinetics of hydrolysis of substrates by human α-thrombin in buffer A at 37° C. (Example 2, Table 1)
- Assay type: biochemical
Square brackets hold non-standard residues; d marks the D form. Peptide text beside a SMILES is read from it. * marks the point of attachment. pNA = O=[N+]([O-])c1ccc(N*)cc1; Pip = O=C(O)[C@@H]1CCCCN1; Nle = CCCC[C@H](N)C(=O)O; Boc = CC(C)(C)OC(=O)*
MEASURE: kcat /Km (M/s)

COC(=O)C(C)(C)C(=O)NCC(=O)N[C@@H](CCCNC(=N)N)C(=O)Nc1ccc([N+](=O)[O-])cc1.Cl [DMMZ-Gly-Arg-pNA.HCl]
7140
Cl.N[C@H](Cc1ccccc1)C(=O)N1CCCC[C@H]1C(=O)N[C@@H](CCC(=O)O)C(=O)Nc1ccc([N+](=O)[O-])cc1 [HCl.H-D-Phe-Pip-Glu-pNA] (H-[dF]-[Pip]-Glu-pNA)
739
COC(=O)CC(=O)N[C@H](C(=O)N[C@@H](CCCNC(=N)N)C(=O)Nc1ccc([N+](=O)[O-])cc1)C(C)C.Cl [MZ-Val-Arg-pNA.HCl]
14300
Cl.Cl.NCCCC[C@H](NC(=O)[C@@H]1CCCCN1C(=O)[C@H](N)Cc1ccccc1)C(=O)Nc1ccc([N+](=O)[O-])cc1 [2HCl.H-D-Phe-Pip-Lys-pNA] (H-[dF]-[Pip]-Lys-pNA)
1.82e+06
CCCC[C@H](NC(=O)[C@@H]1CCCCN1C(=O)[C@H](N)Cc1ccccc1)C(=O)Nc1ccc([N+](=O)[O-])cc1.Cl [HCl.H-D-Phe-Pip-Nle-pNA] (H-[dF]-[Pip]-[Nle]-pNA)
12100

[P] Cl.Cl.N=C(N)NCCC[C@H](NC(=O)[C@@H]1CCCN1C(=O)[C@H](N)Cc1ccccc1)C(=O)Nc1ccc([N+](=O)[O-])cc1 [2HCl.H-D-Phe-Pro-Arg-pNA]
[Q] CC(C)[C@H](N)C(=O)N[C@@H](CCCNC(=N)N)C(=O)Nc1ccc([N+](=O)[O-])cc1.Cl.Cl [2HCl.H-Val-Arg-pNA] (H-Val-Arg-pNA)
[R] COC(=O)CC(=O)N[C@@H](C(=O)N[C@@H](CCCNC(=N)N)C(=O)Nc1ccc([N+](=O)[O-])cc1)C(C)C.Cl [MZ-D-Val-Arg-pNA.HCl]
Rank ascending by kcat /Km. Ranked list of labels, please, in the requested order.
R, Q, P

[I] CC(C)[C@@H](N)C(=O)N[C@@H](CCCNC(=N)N)C(=O)Nc1ccc([N+](=O)[O-])cc1.Cl.Cl [2HCl.H-D-Val-Arg-pNA] (H-[dV]-Arg-pNA)
[II] CCC(CC)(C(=O)NCC(=O)N[C@@H](CCCNC(=N)N)C(=O)Nc1ccc([N+](=O)[O-])cc1)C(=O)OC.Cl [DEMZ-Gly-Arg-pNA.HCl]
Compare I and II by numeric kcat /Km and name the larger one. Selection: enter the item's label.
II
(II: 1990 M/s, I: 65.9 M/s)

[a] COC(=O)C(C)C(=O)NC(C)C(=O)NC(CCCNC(=N)N)C(=O)Nc1ccc([N+](=O)[O-])cc1.Cl (mixture of isomers) [MMZ-Ala-Arg-pNA.HCl]
[b] CC(C)[C@H](NC(=O)CNC(=O)OC(C)(C)C)C(=O)N[C@@H](CCCNC(=N)N)C(=O)Nc1ccc([N+](=O)[O-])cc1.Cl [Boc-Gly-Val-Arg-pNA.HCl] (Boc-Gly-Val-Arg-pNA)
Of a and b , whose reported kcat /Km is the larger number? Answer format: the label of the selected item.
b

[I] NC(N)=NCCC[C@H](NC(=O)[C@@H]1CCCCN1C(=O)[C@H](N)Cc1ccccc1)C(=O)Nc1ccc([N+](=O)[O-])cc1 [2HCl.H-D-Phe-Pip-Arg-pNA]
[II] COc1ccc(COC(=O)NCC(=O)N[C@@H](CCCNC(=N)N)C(=O)Nc2ccc([N+](=O)[O-])cc2)cc1.Cl [MZ-Gly-Arg-pNA.HCl]
[III] C[C@@H](N)C(=O)N[C@@H](CCCNC(=N)N)C(=O)Nc1ccc([N+](=O)[O-])cc1.Cl.Cl [2HCl.H-D-Ala-Arg-pNA] (H-[dA]-Arg-pNA)
[IV] Cl.Cl.NCCCC[C@H](NC(=O)[C@@H]1CCCN1C(=O)[C@H](N)Cc1ccccc1)C(=O)Nc1ccc([N+](=O)[O-])cc1 [2HCl.H-D-Phe-Pro-Lys-pNA] (H-[dF]-Pro-Lys-pNA)
[V] Cl.Cl.NCC(=O)N[C@@H](CCCN=C(N)N)C(=O)Nc1ccc([N+](=O)[O-])cc1 [2HCl.H-Gly-Arg-pNA] (H-Gly-Arg-pNA)
Sort (5 molecules) by kcat /Km: min first. Give the labels in the order specified.
III, V, II, IV, I

---

- MEASURED_TARGET: human α-thrombin (Homo sapiens)
- Construct: Pure human α-thrombin; gift of Dr. T. Lindhout (University of Limburg, Maastricht)
- TEST_DESCRIPTION: Kinetics of hydrolysis of substrates by human α-thrombin in buffer A at 37° C. (Example 2, Table 1)
- Type: biochemical
Square brackets hold non-standard residues; d marks the D form. Peptide text beside a SMILES is read from it. * marks the point of attachment. pNA = O=[N+]([O-])c1ccc(N*)cc1; Pip = O=C(O)[C@@H]1CCCCN1; Nle = CCCC[C@H](N)C(=O)O
MEASURE: kcat (s⁻¹)

C[C@@H](N)C(=O)N[C@@H](CCCNC(=N)N)C(=O)Nc1ccc([N+](=O)[O-])cc1.Cl.Cl [2HCl.H-D-Ala-Arg-pNA] (H-[dA]-Arg-pNA)
0.096

[a] COC(=O)CC(=O)N[C@@H](C)C(=O)N[C@@H](CCCNC(=N)N)C(=O)Nc1ccc([N+](=O)[O-])cc1.Cl [MZ-Ala-Arg-pNA.HCl]
[b] CC(C)[C@H](NC(=O)CN)C(=O)N[C@@H](CCCNC(=N)N)C(=O)Nc1ccc([N+](=O)[O-])cc1.Cl.Cl [2HCl.H-Gly-Val-Arg-pNA] (H-Gly-Val-Arg-pNA)
[c] COC(=O)CC(=O)N[C@H](C)C(=O)N[C@@H](CCCNC(=N)N)C(=O)Nc1ccc([N+](=O)[O-])cc1.Cl [MZ-D-Ala-Arg-pNA.HCl]
[d] CCCC[C@H](NC(=O)[C@@H]1CCCCN1C(=O)[C@H](N)Cc1ccccc1)C(=O)Nc1ccc([N+](=O)[O-])cc1.Cl [HCl.H-D-Phe-Pip-Nle-pNA] (H-[dF]-[Pip]-[Nle]-pNA)
[e] COC(=O)C(C)C(=O)NCC(=O)NC(CCCNC(=N)N)C(=O)Nc1ccc([N+](=O)[O-])cc1.Cl (mixture of isomers) [MMZ-Gly-Arg-pNA.HCl]
Hi! Can you put these in order of kcat, lowest number first? # format: label list in the order the request specifies
c, e, d, b, a
(c: 0.059 s⁻¹, e: 6.60 s⁻¹, d: 11.4 s⁻¹, b: 16.54 s⁻¹, a: 107.5 s⁻¹)

[a] COc1ccc(COC(=O)NCC(=O)N[C@@H](CCCNC(=N)N)C(=O)Nc2ccc([N+](=O)[O-])cc2)cc1.Cl [MZ-Gly-Arg-pNA.HCl]
[b] Cl.Cl.NCC(=O)N[C@@H](CCCN=C(N)N)C(=O)Nc1ccc([N+](=O)[O-])cc1 [2HCl.H-Gly-Arg-pNA] (H-Gly-Arg-pNA)
[c] Cl.Cl.NCCCC[C@H](NC(=O)[C@@H]1CCCCN1C(=O)[C@H](N)Cc1ccccc1)C(=O)Nc1ccc([N+](=O)[O-])cc1 [2HCl.H-D-Phe-Pip-Lys-pNA] (H-[dF]-[Pip]-Lys-pNA)
Order by kcat, ascending. Put the labels in the requested order and list them out.
b, a, c
(b: 0.107 s⁻¹, a: 12.3 s⁻¹, c: 118.3 s⁻¹)

---

- MEASURED_TARGET: UniProtKB P00734
- TEST_DESCRIPTION: Kinetic parameters of hydrolysis of the substrates by thrombin in buffer A at 37° C. (Example 4, Table 3)
- Type: biochemical
- Set-up: Pure human α-thrombin; gift of Dr. T. Lindhout (University of Limburg, Maastricht)
- SETTINGS: buffer A, 37° C.
Square brackets hold non-standard residues; d marks the D form. Peptide text beside a SMILES is read from it. * marks the point of attachment. pNA = O=[N+]([O-])c1ccc(N*)cc1; Boc = CC(C)(C)OC(=O)*
MEASURE: Km (µM)

Example entries begin here.
CC(C)[C@H](NC(=O)CNC(=O)OC(C)(C)C)C(=O)N[C@@H](CCCNC(=N)N)C(=O)Nc1ccc([N+](=O)[O-])cc1.Cl [Boc-Gly-Val-Arg-pNA.HCl] (Boc-Gly-Val-Arg-pNA)
244
CC(C)[C@H](NC(=O)CNC(=O)[C@@H](N)CCC(=O)O)C(=O)N[C@@H](CCCNC(=N)N)C(=O)Nc1ccc([N+](=O)[O-])cc1 [2HCl.H-Glu-Gly-Val-Arg-pNA] (H-EGVR-pNA)
3270
CC(C)[C@H](N)C(=O)N[C@@H](CCCNC(=N)N)C(=O)Nc1ccc([N+](=O)[O-])cc1.Cl.Cl [2HCl.H-Val-Arg-pNA] (H-Val-Arg-pNA)
1240
CC(C)[C@H](NC(=O)CNC(=O)CNC(=O)[C@@H](N)CCC(=O)O)C(=O)N[C@@H](CCCNC(=N)N)C(=O)Nc1ccc([N+](=O)[O-])cc1 [2HCl.H-Glu-Gly-Gly-Val-Arg-pNA] (H-EGGVR-pNA)
1010
COC(=O)CC(=O)N[C@H](C(=O)N[C@@H](CCCNC(=N)N)C(=O)Nc1ccc([N+](=O)[O-])cc1)C(C)C.Cl [MZ-Val-Arg-pNA.HCl]
1010

[1] Cl.Cl.NCCCC[C@H](NC(=O)[C@@H]1CCCN1C(=O)[C@H](N)Cc1ccccc1)C(=O)Nc1ccc([N+](=O)[O-])cc1 [2HCl.H-D-Phe-Pro-Lys-pNA] (H-[dF]-Pro-Lys-pNA)
[2] CC(C)[C@H](NC(=O)CN)C(=O)N[C@@H](CCCNC(=N)N)C(=O)Nc1ccc([N+](=O)[O-])cc1.Cl.Cl [2HCl.H-Gly-Val-Arg-pNA] (H-Gly-Val-Arg-pNA)
[3] CC(C)[C@H](NC(=O)OCCS(C)(=O)=O)C(=O)N[C@@H](CCCNC(=N)N)C(=O)Nc1ccc([N+](=O)[O-])cc1.Cl [Msc-Val-Arg-pNA.HCl]
I would appreciate it if you could sort these 3 compounds by Km, starting from the smallest number. Your reply should list the labels following the order given in the request.
1, 3, 2
(1: 35 µM, 3: 882 µM, 2: 3230 µM)
